- measurement.target: Human recombinant MMP-13 (Homo sapiens)
- Construct: made in house; host or cells: baculovirus / insect cells
- test: In vitro MMP inhibition, IC50 determination (fluorogenic substrate I)
- Assay type: biochemical
- run.conditions: value outside parenthesis
metric.name: IC50 (nM)

COCCN1CCC(C(=O)NO)(S(=O)(=O)c2ccc(OCCCn3nnc(-c4ccc5c(c4)OCO5)n3)cc2)CC1 : 0.4
O=C(NO)C1(S(=O)(=O)c2ccc(OCCc3cccc(-c4ccncc4)c3)cc2)CCOCC1 : 0.2
COc1ccc(C(=O)NC(C)(C)CCOc2ccc(S(=O)(=O)C3(C(=O)NO)CCNCC3)cc2)cc1 : 17.8

I: O=C(NO)C1(S(=O)(=O)c2ccc(OCCCc3nnc(-c4ccccc4Cl)o3)cc2)CCOCC1
II: COc1ccc(C(=O)CCCc2ccc(S(=O)(=O)C3(C(=O)NO)CCOCC3)cc2)cc1
III: COc1ccc(-c2noc(CCCOc3ccc(S(=O)(=O)C4(C(=O)NO)CCOCC4)cc3)n2)cc1
**Q:** Sort the 3 molecules by IC50; largest first, smallest last. As an answer, provide the labels arranged in the order called for.
**A:** I, III, II
(I: 1.9 nM, III: 0.7 nM, II: 0.2 nM)

====

- measurement.target: Human recombinant MMP-13 (Homo sapiens, UniProt P45452)
- Construct: made in house; host or cells: baculovirus / insect cells
- test: In vitro MMP inhibition, IC50 determination (fluorogenic substrate I)
- Type: biochemical
- run.conditions: value outside parenthesis
pIC50: −log10 of the molar value.
metric.name: pIC50

Here's what some known entries look like.
O=C(NO)C1(S(=O)(=O)c2ccc(OCCCc3cccc(-c4ccc(F)cc4)c3)cc2)CCN(C2CC2)CC1 [Example 139] : 9.40
O=C(NO)C1(S(=O)(=O)c2ccc(OCCc3cccc(-c4ccccc4)c3)cc2)CCOCC1 [Example 99] : 9.40
O=C1CN(c2ccccc2)C(=O)N1CCCOc1ccc(S(=O)(=O)C2(C(=O)NO)CCOCC2)cc1 [Example 263] : 8.42
O=C(NO)C1(S(=O)(=O)c2ccc(OCCCc3nnc(-c4ccc(OC(F)(F)F)cc4)o3)cc2)CCOCC1 [Example 200] : 9.22

A: Cc1cc(NC(=O)CCCOc2ccc(S(=O)(=O)C3(C(=O)NO)CCOCC3)cc2)ccc1OC(C)C [Example 290]
B: COc1ccc(C(=O)C(O)CCOc2ccc(S(=O)(=O)C3(C(=O)NO)CCOCC3)cc2)cc1 (stereo not drawn) [Example 184]
**Q:** Looking only at measured pIC50, which entry is lower, A or B ? Respond with the label that goes with your answer.
**A:** B
(B: 8.41, A: 8.96)

====

- measurement.target: Human recombinant MMP-2 (Homo sapiens, UniProt P08253)
- Construct: made in house; host or cells: MMP-2-transfected p2AHT2 cells
- Sequence (P08253 110-660): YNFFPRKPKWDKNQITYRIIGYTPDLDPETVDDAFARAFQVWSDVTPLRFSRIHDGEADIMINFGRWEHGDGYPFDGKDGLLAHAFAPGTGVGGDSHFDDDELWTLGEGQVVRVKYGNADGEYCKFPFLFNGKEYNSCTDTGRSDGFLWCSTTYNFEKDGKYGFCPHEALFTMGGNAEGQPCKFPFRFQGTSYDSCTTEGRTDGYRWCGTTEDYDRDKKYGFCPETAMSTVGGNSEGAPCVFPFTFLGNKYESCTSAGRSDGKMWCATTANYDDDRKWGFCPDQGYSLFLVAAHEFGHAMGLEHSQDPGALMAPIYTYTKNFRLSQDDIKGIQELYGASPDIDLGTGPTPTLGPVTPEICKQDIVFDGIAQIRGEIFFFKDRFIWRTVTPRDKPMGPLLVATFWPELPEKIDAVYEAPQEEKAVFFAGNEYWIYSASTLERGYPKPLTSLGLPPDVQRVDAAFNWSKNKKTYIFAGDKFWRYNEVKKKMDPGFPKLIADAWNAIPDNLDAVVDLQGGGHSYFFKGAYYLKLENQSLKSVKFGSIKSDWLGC
- test: In vitro MMP inhibition, Ki determination (fluorogenic substrate II)
- Format: biochemical
- run.conditions: value in parentheses
metric.name: Ki (nM)

O=C(NO)C1(S(=O)(=O)c2ccc(OCCCc3cccc(-c4csc5ccccc45)c3)cc2)CCOCC1 [Example 631] : 4960

A: O=C(CCCOc1ccc(S(=O)(=O)C2(C(=O)NO)CCOCC2)cc1)Nc1cccc(I)c1 [Example 570]
B: O=C(NO)C1(S(=O)(=O)c2ccc(OCCCc3cccc(-c4ccc(C(F)(F)F)cc4)c3)cc2)CCOCC1 [Example 625]
C: N#Cc1ccc(-c2cccc(CCCOc3ccc(S(=O)(=O)C4(C(=O)NO)CCOCC4)cc3)c2)cc1 [Example 624]
D: COCCN1CCC(C(=O)NO)(S(=O)(=O)c2ccc(OCCc3cccc(-c4ccccn4)c3)cc2)CC1 [Example 548]
E: CCc1ccc(COc2ccc(S(=O)(=O)C3(C(=O)NO)CCOCC3)cc2)cn1 [Example 552]
**Q:** Ascending by Ki, please: list the molecules accordingly. As an answer, provide the labels arranged in the order called for.
**A:** D, E, A, C, B
(D: 1.58 nM, E: 4.94 nM, A: 10.1 nM, C: 623 nM, B: 6860 nM)

I: O=C(NO)C1(S(=O)(=O)c2ccc(OCCCc3cccc(-c4cccs4)c3)cc2)CCOCC1 [Example 595]
II: COCCN1CCC(C(=O)NO)(S(=O)(=O)c2ccc(OCCCc3cccc(-c4ccc(C#N)cc4)c3)cc2)CC1 [Example 514]
III: C=Cc1ccc(-c2cccc(CCCOc3ccc(S(=O)(=O)C4(C(=O)NO)CCOCC4)cc3)c2)cc1 [Example 635]
**Q:** Sort the 3 molecules by Ki; largest first, smallest last. As an answer, provide the labels arranged in the order called for.
**A:** III, I, II
(III: 4680 nM, I: 586 nM, II: 293 nM)

A: COCCN1CCC(C(=O)NO)(S(=O)(=O)c2ccc(OCCc3cccc(-c4ccc(F)cc4F)c3)cc2)CC1 [Example 546]
B: O=C(NO)C1(S(=O)(=O)c2ccc(OCCCc3cccc(-c4ccc(F)cc4F)c3)cc2)CCOCC1 [Example 630]
**Q:** Looking only at measured Ki, which entry is lower, A or B ? Respond with the label that goes with your answer.
**A:** A
